Examples of compounds with documented delta Cp (YB-1 minus CDIP) follow.
# experiment_notes: YB-1 transcript reduction by qRT-PCR – cell-based, fluorescence, primary screen (AID 434959);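 further: higher means less YB-1 transcript or more CDIP transcript relative to DMSO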
# experimental_context: U2OS, qRT-PCR YB-1 vs CDIP delta delta Cp, 16 h; hits give high values; zero = DMSO, each unit about twofold
Hit rate of the full screen: of about 30,000 compounds, about 110 (0.37%) were called active. The sample holds actives, similar compounds and a random draw of the others, so the mix is not that of the screen.

Please review the following examples before continuing.
>>> meas_value("COC(=O)[C@]1(Cc2ccccc2CN=[N+]=[N-])N=C(c2ccc(OCCCO)cc2)O[C@@H]1c1ccccc1CN=[N+]=[N-]")
"0.139 (inactive)"
>>> meas_value("Cc1noc(C)c1S(=O)(=O)Nc1ccc2c(c1)C(=O)N([C@@H](C)CO)C[C@@H](C)[C@H](CN(C)C(=O)Nc1cccc3ccccc13)O2")
"0.0124 (inactive)"

Give its delta Cp (YB-1 minus CDIP) value. Item: `C[C@H](CO)N1C[C@H](C)[C@H](CN(C)CC2CCCCC2)Oc2ccc(NC(=O)CCN3CCOCC3)cc2CC1=O` 0.315 (inactive)

Again, but for COC(=O)C1=C(C)NC2=C(C(=O)CC(C)(C)C2)C1c1ccncc1 (stereo not given) -0.233 (inactive)

Please give the result for `O=C(/C=C/c1ccccc1)c1ccc(O[C@@H]2O[C@H](CO)[C@@H](O)[C@H](O)[C@H]2O)cc1O` too. 0.0338 (inactive)

What about `C[C@@H]1CN([C@H](C)CO)C(=O)c2cccc(NS(=O)(=O)c3ccc(F)cc3)c2O[C@@H]1CN(C)C(=O)Nc1ccc(C(F)(F)F)cc1` ? -0.00681 (inactive)

`COc1cc(/C=N\NC(=O)CCCCCCC(=O)NO)c(Br)cc1O` , same question. -0.218 (inactive)

Same for `Cc1noc(C)c1NC(=O)Nc1ccc2c(c1)C(=O)N([C@@H](C)CO)C[C@@H](C)[C@H](CN(C)C(=O)NC(C)C)O2` -0.101 (inactive)

What about this compound? `Cc1noc(C)c1NC(=O)N(C)C[C@H]1Oc2c(NS(=O)(=O)c3cccs3)cccc2C(=O)N([C@@H](C)CO)C[C@@H]1C` -0.0216 (inactive)

`C[C@H]1CN([C@@H](C)CO)C(=O)c2cc(NC(=O)CCC(F)(F)F)ccc2O[C@H]1CN(C)Cc1ccc(C(=O)O)cc1` , same question. -0.0494 (inactive)

Another compound to check: `C[C@H]1CN([C@@H](C)CO)C(=O)c2cccc(NC(=O)NC3CCCCC3)c2O[C@H]1CN(C)CC1CCCCC1` -0.236 (inactive)

Next compound: `Cc1ccc(S(=O)(=O)Nc2cccc3c2O[C@@H](CN(C)S(=O)(=O)c2cccs2)[C@@H](C)CN([C@@H](C)CO)C3=O)cc1` -0.365 (inactive)

Next compound: `C[C@H](CO)N1C[C@H](C)[C@H](CN(C)S(=O)(=O)c2ccccc2)Oc2c(NC(=O)CCCCCC(=O)Nc3ccccc3N)cccc2C1=O` 0.187 (inactive)

Similarly, `COC(=O)CCCCCCC(=O)N/N=C/c1ccc(O)c(O)c1O` ? -0.105 (inactive)

Entry to check: `C[C@@H]1CN([C@H](C)CO)C(=O)c2cc(NC(=O)Cc3ccccc3)ccc2O[C@@H]1CN(C)CC1CCCCC1` -0.0442 (inactive)

Data provenance is PubChem BioAssay AID434959.
